Measured values drawn from patent EP3753932A1 for this set.

Would you kindly list Ki for each of these molecules?
target: Human µ-opioid receptor (Homo sapiens)
Construct: expressed in transfected cells; host or cells: CHO-K1
Sequence (P35372 whole entry): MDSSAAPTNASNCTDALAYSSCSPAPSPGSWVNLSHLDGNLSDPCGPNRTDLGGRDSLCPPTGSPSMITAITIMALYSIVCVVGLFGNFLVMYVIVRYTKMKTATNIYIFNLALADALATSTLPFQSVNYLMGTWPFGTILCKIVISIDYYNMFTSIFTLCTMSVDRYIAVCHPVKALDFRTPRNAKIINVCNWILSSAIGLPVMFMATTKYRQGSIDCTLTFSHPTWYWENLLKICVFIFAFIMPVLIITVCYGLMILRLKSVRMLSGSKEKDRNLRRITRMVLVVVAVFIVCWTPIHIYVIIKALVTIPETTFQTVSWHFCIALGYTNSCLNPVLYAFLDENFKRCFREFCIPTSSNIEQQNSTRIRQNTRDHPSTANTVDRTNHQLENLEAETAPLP
test: Human µ-opioid receptor radioligand assay ([3H]-DAMGO)
Format: binding

Reference set (2 entries):
- CCC[C@@H](c1nc2ccc(CN3CCC(c4cccc(O)c4)(N(C)C)CC3)cc2nc1CC)N1C[C@@H](C)N[C@@H](C)C1 [Example 42]: < 100 nM
- CCC[C@H](c1cnc2cc(N3CCC(c4cccc(O)c4)(N(C)C)CC3)ccc2c1)N1C[C@@H](C)N[C@@H](C)C1 [Example 4]: < 100 nM

Alright, here's another molecule for you.
Query :: Recorded Ki for CCCC(c1cc2cc(CN3CCC(c4cccc(O)c4)(N(C)C)CC3)ccc2nc1CC)N1C[C@@H](C)N[C@@H](C)C1 (stereo partly drawn) [Example 22] with Human µ-opioid receptor (Homo sapiens), please?
Result :: < 100 nM
